Values were extracted from the supplement of paper PMC9732359.

assayInfo: protein stability index of a GFP-peptide fusion (yeast GPS) (PSI 1-4); higher = more stable; sorted into four equal gates, so the index is relative within each strain
runConditions: san1∆
Overview of reported protein stability index across a group of sequences:
measure: protein stability index

1. SPLDIYSDEASAQKKRF [RPS2]    3.03
2. RRKTTKQNSSSDINQND [YDL088C/ASM4]    2.96
3. LEIRNKICSSEMINEQK [RGR1]    3.01
4. QGNYPTTSYIKEQENIT [DPB4]    3.02
5. SFSLTTFSPSGKLGQID [PRE8]    3.01

====

Overview of reported protein stability index across a group of sequences:
assayInfo: protein stability index of a GFP-peptide fusion (yeast GPS) (PSI 1-4); higher = more stable; sorted into four equal gates, so the index is relative within each strain
runConditions: pdr5∆
measure: protein stability index

1) VPGPGTKLIQYEHNGRT [CSL4]    3.06
2) GMMSTTGTARLNSMPNN [YJL039C/NUP192]    2.99
3) LKNKNFKCQEKDKGVYV [SIR2]    3.03
4) STLEPTLRKELEQIQVQ [YIL149C/MLP2]    3.01
5) QVPQVRSMSGQPPTNVQ [SNF5]    3.03
6) LSQVYPTLVRSVISGNL [CSN12]    2.92
7) TNHSAAASTPTTTATPH [PGD1]    3.03
8) LSISVAAEPMDSKMIQD [SNU114]    3.03

====

assayInfo: protein stability index of a GFP-peptide fusion (yeast GPS) (PSI 1-4); higher = more stable; sorted into four equal gates, so the index is relative within each strain
runConditions: pdr5∆
measure: protein stability index

1) EQTTGGNNKDLKNTMQY [RPB4]    3.09
2) VELTYSLNNSDSLISGV [BRR2]    2.98
3) TCSCCKKTVAGGAYTVS [RPL43A]    2.1
4) LRVEHIKHSKCRQEFLE [RPL21A]    2.43
5) QNSKFLKVNVTLDNPLL [YJL039C/NUP192]    2.57
6) EDEEEEEEVTDQLEDLR [QCR6]    3.52
7) AGIRPKFILALNDEGEP [RPN1]    1.9
8) LYASDYASYFPYLLETY [RPN7]    1.83
9) PLHLIFAQPVADIENST [SSN2]    2.51
10) HQNVIIGSNGSGKSNFF [SMC3]    2.7
11) FLMGIFNSVVNLSRYPK [MTR3]    2.5
12) EMMKMMQDPQMQQMAKQ [SRP54]    2.76
13) DNETPSKKTSPKATSSA [YOR098C/NUP1]    2.52
14) DTADEAKTLIPSLNNKI [RPB4]    3.15
15) KEALLGQLLKDHLIIEP [ARP9]    1.51
16) LALTTLSEPLIKIGIRV [YCG1]    2.06
17) SIMPDLYFYRNPEEVEQ [RPS0B]    2.95
18) PKMGVSSSSLECATCHG [RPO31]    3.34
19) DVDPIELVVFLPALCKK [RPL8A]    2.8
20) VTKILPHLIIQNHNSKS [IRR1]    1.19
21) TKLTTCKRELAFVKQKN [YIL149C/MLP2]    1.81
22) KERTKSLEHELKRSTEL [YIL149C/MLP2]    3.36
23) PTPVVTISEKEQDILDL [SSN2]    2.02
24) VITPHFITNVQSISQNS [SWI1]    2.45
25) IKQTFKNDLFVIWSEDN [RPO21]    2.32
26) SLSEGCDILVATPGRLI [PRP28]    3.23
27) DFIDTATRHVLMRQGVL [RPS3]    3.06
28) KAGGECITLDQLAVRAP [RPL18A]    2.29
29) PRPSYSSRPNVNTTRRF [YMR129W/POM152]    2.97
30) TFAKSKNYSRPSTAIHT [SIR4]    1.79
31) LEKTSRILNFFDKNTKT [YMR153W/NUP53]    3.09
32) QYESQAPDGSASISLPN [SWP82]    2.61
33) ISVGESGDRLTRASKVL [RPL11A]    3.08
34) DKELRKTKFQYKFLDQN [YIL149C/MLP2]    2.96
35) VNGSITDQLIQNIETRQ [NUT1]    3.01
36) VAKLANWFLEVYASGNP [YML031W/NDC1]    2.09
37) DYNFKYGIPLEFYNEMH [PRP8]    3.08
38) ELTAQGYDPALLNILSG [RPN2]    3.06
39) DQLSTISMILRNISFSD [SWI1]    2.44
40) ARIALRHLEKEGIIKPI [RPS25A]    3.37
41) YTYSSTLSHLRRTNTPI [RPB2]    2.13
42) AERTMSKKETKLQENRT [SMC2]    3.17
43) LSKVSLLTPDIGAVYSG [PRE8]    1.99
44) SSHQRVFKLSTNLISKI [SWP82]    1.97
45) RFRKAQCPIIERLTNSL [RPS5]    2.82
46) SSNTNNNTNNNNTNTGA [SWI1]    3.29
47) GFIDASCIAVMAGLMHF [RRP45]    1.55
48) VKEEKEDMETQASDPSK [RPC53]    3.41
49) LLFNNDFPLLKVLAAHT [RRP40]    1.25
50) KSQEQREHSLQLFRTNK [PRP28]    2.51
51) IMDNDPVLFNRQPSLHK [RPO21]    2.17

====

assayInfo: protein stability index of a GFP-peptide fusion (yeast GPS) (PSI 1-4); higher = more stable; sorted into four equal gates, so the index is relative within each strain
runConditions: pdr5∆
Could you label it Criterion met if measured protein stability index is 2 or higher, and Criterion not met otherwise?

1. LMTKLNSFKLFKAEKLQ [RPC17]    Criterion not met
2. PDCKIKIAHGTTTLAFR [PRE2]    Criterion met
3. KYPARRIHTNDNDIMNL [SSN3]    Criterion met
4. KEEFIMMVNISVLISIP [PCI8]    Criterion not met
5. KVVEFAITHMIDALGTE [SCL1]    Criterion met
6. FKSVLPIVLLNTLRKCY [UBP6]    Criterion not met
7. AADVSAVDAKQLAQIRQ [YML103C/NUP188]    Criterion met
8. VFLRNRLKYALNGREVK [RPS4A]    Criterion met
9. VSLIKKYKLISRIVEIF [YML103C/NUP188]    Criterion not met

====

assayInfo: protein stability index of a GFP-peptide fusion (yeast GPS) (PSI 1-4); higher = more stable; sorted into four equal gates, so the index is relative within each strain
runConditions: ubr1∆
Overview of reported protein stability index across a group of sequences:
measure: protein stability index

1) HFVRDLGTIESAQAETE [DIS3]    2.49
2) SVSSPIELNFDAVKDFK [QCR2]    1.57
3) KKICNHPFVFEEVEDQI [SNF2]    2.86
4) NIKNTNEEATPIPSSET [RRP6]    2.67
5) VMEIGKDAEYLRNYLTP [PUP1]    2.85
6) KIPDTYTANTSAQSIAS [YAR002W/NUP60]    2.56
7) SQSKMMSSQISSLIPHC [MTR3]    2.31
8) DVQKSSDSSSEDEVKVE [YLR335W/NUP2]    2.31
9) AVPLQIVSPQSNKPCMG [RPO21]    1.78
10) YSENGKHDSLRYRLLSD [RPN1]    2.49

====

assayInfo: protein stability index of a GFP-peptide fusion (yeast GPS) (PSI 1-4); higher = more stable; sorted into four equal gates, so the index is relative within each strain
runConditions: ubr1∆
measure: protein stability index

1. SGKARICIVGGYDDFQE [FAS2]    1.56
2. SHSLALNEITNSKVNKL [DSN1]    2.54
3. GKLEVPGYVDIVKTSSG [RPS19A]    3.2
4. ELVTISWVQPRIISGDQ [RPN9]    2.98
5. LAGKVGSIRVHKSGKLS [RPC53]    1.28
6. MSQYQSTMKENKDLSEL [YIL149C/MLP2]    2.76

====

assayInfo: protein stability index of a GFP-peptide fusion (yeast GPS) (PSI 1-4); higher = more stable; sorted into four equal gates, so the index is relative within each strain
runConditions: san1∆
measure: protein stability index

1) KNGNEYNEFLYSKAGRE [QCR8]    2.77
2) FRHHVQIQQQQQKQQQQ [SNF5]    3.07
3) ADKVYTKENLEVSGENV [QCR2]    3.2
4) LFLNNFVSRIPIMFQDF [IRR1]    1.7
5) VPTLEAKRDYIISRLNA [FAS1]    3.05
6) IGWCKEDPKRRADTMDF [YJL039C/NUP192]    3.47
7) NDAMAGGFTAYGGADYG [RPO21]    1.92
8) CLEDPEKPFNENRFQDT [POP4]    2.64
9) ELLSKYKEQIIQGFYWA [SNU114]    2.47
10) AGYTDNVIRVWQVMTAN [ASC1]    1.5
11) DTICQSIQEQIQEFQGN [SNF5]    3.36
12) ILKLLNGFMESAIVNED [SOH1]    3.41
13) SDSSKPAFSFGTKSNEK [YJL041W/NSP1]    2.79
14) GNDNNSDSNANAAVAGV [SWI3]    3.31
15) RLQAKRLKDVEWVKLHR [RMP1]    3.15
16) TERVVEIGPSPTLAGMA [FAS2]    2.5
17) PFKVFLDIGLQRTTTGA [RPL5]    2.23
18) KIQFHIHFADVAHITTK [RGR1]    2.83
19) TSAHLKLKEMQKVLNAH [SMC4]    2.63
20) LYQSLTPQQLQMIQQRH [SNF5]    1.69
